For each record, write down the corresponding IC50.
molecular target: Human CD73 (Homo sapiens, UniProt P21589); construct: purchased R&D Systems; host or cells: CHO cells; assay: CD73 Enzyme Assay (EnzChek PNP/MESG kinetic readout of AMP hydrolysis); assay type: biochemical; settings: 0.25 nM hCD73, 25 μM AMP; read-out: CD73 Enzyme Assay IC50
Sequence (P21589 27-549): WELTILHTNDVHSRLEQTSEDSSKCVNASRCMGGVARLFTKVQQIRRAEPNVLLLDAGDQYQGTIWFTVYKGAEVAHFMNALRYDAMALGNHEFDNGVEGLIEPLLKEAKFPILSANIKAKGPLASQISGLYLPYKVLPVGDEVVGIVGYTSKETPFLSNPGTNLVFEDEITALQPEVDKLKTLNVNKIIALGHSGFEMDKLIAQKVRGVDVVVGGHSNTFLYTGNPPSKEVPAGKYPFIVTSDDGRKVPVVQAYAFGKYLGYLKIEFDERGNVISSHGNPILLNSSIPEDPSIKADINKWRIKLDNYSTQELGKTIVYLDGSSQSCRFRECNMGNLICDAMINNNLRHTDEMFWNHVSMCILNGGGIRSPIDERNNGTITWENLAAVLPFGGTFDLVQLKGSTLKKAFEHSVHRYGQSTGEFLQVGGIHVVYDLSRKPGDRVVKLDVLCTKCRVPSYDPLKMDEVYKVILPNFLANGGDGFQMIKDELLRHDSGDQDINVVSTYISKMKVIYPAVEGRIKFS

molecule	system-tested	IC50
N#Cc1c(Cl)nc2c(cnn2[C@@H]2O[C@H](COCP(=O)(O)O)[C@@H](O)[C@H]2O)c1N1C[C@@H](F)[C@@H](F)C1	Human CD73 (Homo sapiens, UniProt P21589)	< 10 nM
N#Cc1c(Cl)nc2c(cnn2[C@@H]2O[C@H](COCP(=O)(O)O)[C@@H](O)[C@H]2O)c1N1CCC(F)(F)C1	Human CD73 (Homo sapiens, UniProt P21589)	< 10 nM
N#Cc1nc2c(ccn2[C@@H]2O[C@H](COCP(=O)(O)O)[C@@H](O)[C@H]2O)c(NC2CCCC2)c1Cl	Human CD73 (Homo sapiens, UniProt P21589)	< 10 nM
N#Cc1nc2c(ccn2[C@@H]2O[C@H](CS(=O)(=O)CP(=O)(O)O)[C@@H](O)[C@H]2O)c(NC2CCC(F)(F)CC2)c1Cl	Human CD73 (Homo sapiens, UniProt P21589)	< 10 nM
N#Cc1c(Cl)nc2c(ncn2[C@@H]2O[C@H](COCP(=O)(O)O)[C@@H](O)[C@H]2O)c1N1C[C@@H](F)[C@@H](F)C1	Human CD73 (Homo sapiens, UniProt P21589)	< 10 nM
C[C@H](Nc1c(C#N)c(Cl)nc2c1ncn2[C@@H]1O[C@H](COP(=O)(O)CP(=O)(O)O)[C@@H](O)[C@H]1O)c1ccc(F)cn1	Human CD73 (Homo sapiens, UniProt P21589)	< 10 nM

For each entry beneath this line, provide reported IC50.
1. N#Cc1c(Cl)nc2c(ncn2[C@@H]2O[C@H](CS(=O)(=O)CP(=O)(O)O)[C@@H](O)[C@H]2O)c1N[C@H]1C[C@H](F)C1
2. N#Cc1c(Cl)nc2c(ncn2[C@@H]2O[C@H](COCP(=O)(O)O)[C@@H](O)[C@H]2O)c1N1CC2CC2C1 (stereo partly shown)
3. C[C@@H](Nc1c(C#N)c(Cl)nc2c1ccn2[C@@H]1O[C@H](CS(=O)(=O)CP(=O)(O)O)[C@@H](O)[C@H]1O)c1ccc(C#N)cc1
4. N#Cc1c(Cl)nc2c(ncn2[C@@H]2O[C@H](COCP(=O)(O)O)[C@@H](O)[C@@H]2F)c1N1CCC(F)(F)C1
5. CC(C)Nc1c(C#N)c(Cl)nc2c1ccn2[C@@H]1O[C@H](COP(=O)(O)CP(=O)(O)O)[C@@H](O)[C@H]1O

OUT:
1. 10 to 100 nM
2. < 10 nM
3. < 10 nM
4. 10 to 100 nM
5. < 10 nM

Would you mind listing IC50 for each of the following molecules?
1. N#Cc1c(Cl)nc2c(cnn2[C@@H]2O[C@H](CS(=O)(=O)CP(=O)(O)O)[C@@H](O)[C@H]2O)c1NC1CC(F)(F)C1
2. N#Cc1c(Cl)nc2c(cnn2[C@@H]2O[C@H](CS(=O)(=O)CP(=O)(O)O)[C@@H](O)[C@H]2O)c1N[C@H]1C[C@@H](F)C1

OUT:
1. < 10 nM
2. < 10 nM

###

I'd appreciate it if you could supply IC50 values for the items below.
target: Human CD73 (Homo sapiens, UniProt P21589); construct: purchased R&D Systems; host or cells: CHO cells; assay: CD73 Enzyme Assay (EnzChek PNP/MESG kinetic readout of AMP hydrolysis); assay type: biochemical; conditions: 0.25 nM hCD73, 25 μM AMP; read-out: CD73 Enzyme Assay IC50

smiles-record	IC50
N#Cc1nc2c(ccn2[C@@H]2O[C@H](COCP(=O)(O)O)[C@@H](O)[C@H]2O)c(NC2CCCC2)c1C#N	< 10 nM
N#Cc1c(Cl)nc2c(cnn2[C@@H]2O[C@H](COCP(=O)(O)O)[C@@H](O)[C@H]2O)c1N1C[C@@H](F)[C@H](F)C1	< 10 nM

# evaluate next
IN: Recorded IC50 for N#Cc1c(Cl)nc2c(ccn2[C@@H]2O[C@H](CS(=O)(=O)CP(=O)(O)O)[C@@H](O)[C@@H]2F)c1N with Human CD73 (Homo sapiens, UniProt P21589), please?
OUT: 10 to 100 nM
